The measurements presented in this section are drawn from patent US8247211B2.

Test system: Staphylococcus sp.
Protocol: In vitro antibacterial evaluation: minimum inhibitory concentration (MIC), broth dilution method
Format: cell-based
Condition Label: strain GC 3053; broth dilution, 18 hours at 35° C.
Metric: MIC Staphylococcus aureus (GC 3053) (µg/mL)
# value in µg/mL; strip the unit string

# Compound, MIC Staphylococcus aureus (GC 3053) [µg/mL]
data = [
    ("COc1ccc(Oc2cccc(C3OCC4OC(OC5C(CO)OC(Oc6ccc(CC7NC(=O)C(C(C)c8ccccc8)NC(=O)CNC(=O)C(CO)NC(=O)C(C(O)C8CNC(=N)N8C8OC(CO)C(O)C(O)C8O)NC(=O)C(C(O)C8CNC(=N)N8)NC7=O)cc6)C(O)C5O)C(O)C(O)C4O3)c2)cc1 (centres unmarked)", 2),
    ("CC(c1ccccc1)C1NC(=O)CNC(=O)C(CO)NC(=O)C(C(O)C2CNC(=N)N2C2OC(CO)C(O)C(O)C2O)NC(=O)C(C(O)C2CNC(=N)N2)NC(=O)C(Cc2ccc(OC3OC(CO)C(OC4OC5COC(c6cccc(-c7ccccc7)c6)OC5C(O)C4O)C(O)C3O)cc2)NC1=O (centres unmarked)", 2),
    ("CC(c1ccccc1)C1NC(=O)CNC(=O)C(CO)NC(=O)C(C(O)C2CNC(=N)N2C2OC(CO)C(O)C(O)C2O)NC(=O)C(C(O)C2CNC(=N)N2)NC(=O)C(Cc2ccc(OC3OC(CO)C(OC4OC(CO)C(O)C5OC(CC67CC8CC(CC(C8)C6)C7)OC45)C(O)C3O)cc2)NC1=O (centres unmarked)", 2),
]

// moving on: another record for MIC Staphylococcus aureus (GC 3053)
(Q) Under Staphylococcus sp., report MIC Staphylococcus aureus (GC 3053) for CC(c1ccccc1)C1NC(=O)CNC(=O)C(CO)NC(=O)C(C(O)C2CNC(=N)N2C2OC(CO)C(O)C(O)C2O)NC(=O)C(C(O)C2CNC(=N)N2)NC(=O)C(Cc2ccc(OC3OC(CO)C(OC4OC5COC(c6ccc7c(c6)OCCO7)OC5C(O)C4O)C(O)C3O)cc2)NC1=O (centres unmarked)
(A) 4

* * *

Below, each entry is listed alongside its reported MIC Staphylococcus aureus (GC 4542).
Tested on: Staphylococcus sp.
Protocol: In vitro antibacterial evaluation: minimum inhibitory concentration (MIC), broth dilution method
Format: cell-based
Condition Label: strain GC 4542; broth dilution, 18 hours at 35° C.
Answer in µg/mL, number only, no unit symbol.

// solved cases for MIC Staphylococcus aureus (GC 4542) follow
# Molecule, Observed Value
records = [
    ("CC(c1ccccc1)C1NC(=O)CNC(=O)C(CO)NC(=O)C(C(O)C2CNC(=N)N2C2OC(CO)C(O)C(O)C2O)NC(=O)C(C(O)C2CNC(=N)N2)NC(=O)C(Cc2ccc(OC3OC(CO)C(OC4OC5COC(c6ccc(C=Cc7ccccc7)cc6)OC5C(O)C4O)C(O)C3O)cc2)NC1=O (stereo not shown) [Example 172]", 2),
    ("CCCCOC(=O)CCC1OCC2OC(OC3C(CO)OC(Oc4ccc(CC5NC(=O)C(C(C)c6ccccc6)NC(=O)CNC(=O)C(CO)NC(=O)C(C(O)C6CNC(=N)N6C6OC(CO)C(O)C(O)C6O)NC(=O)C(C(O)C6CNC(=N)N6)NC5=O)cc4)C(O)C3O)C(O)C(O)C2O1 (stereo not shown) [Example 114]", 1),
    ("CCCc1ccc(C2OCC3OC(OC4C(CO)OC(Oc5ccc(CC6NC(=O)C(C(C)c7ccccc7)NC(=O)CNC(=O)C(CO)NC(=O)C(C(O)C7CNC(=N)N7C7OC(CO)C(O)C(O)C7O)NC(=O)C(C(O)C7CNC(=N)N7)NC6=O)cc5)C(O)C4O)C(O)C(O)C3O2)cc1 (stereo not shown) [Example 140]", 1),
]

(Q) Give a short answer stating reported MIC Staphylococcus aureus (GC 4542) for CC(c1ccccc1)C1NC(=O)CNC(=O)C(CO)NC(=O)C(C(O)C2CNC(=N)N2C2OC(CO)C(O)C(O)C2O)NC(=O)C(C(O)C2CNC(=N)N2)NC(=O)C(Cc2ccc(OC3OC(CO)C(OC4OC5COC(c6ccc(-c7ccsc7)cc6)OC5C(O)C4O)C(O)C3O)cc2)NC1=O (stereo not shown) [Example 164] .
(A) 16

(Q) Give the measured MIC Staphylococcus aureus (GC 4542) for CC(c1ccccc1)C1NC(=O)CNC(=O)C(CO)NC(=O)C(C(O)C2CNC(=N)N2C2OC(CO)C(O)C(O)C2O)NC(=O)C(C(O)C2CNC(=N)N2)NC(=O)C(Cc2ccc(OC3OC(CO)C(OC4OC5COC(c6cccc(-c7ccccc7)c6)OC5C(O)C4O)C(O)C3O)cc2)NC1=O (stereo not shown) [Example 154]
(A) 1

* * *

System: Staphylococcus sp.
Protocol: In vitro antibacterial evaluation: minimum inhibitory concentration (MIC), broth dilution method
Type: cell-based
Condition Label: strain GC 4549; broth dilution, 18 hours at 35° C.
API: label(entry) gives YES if the entry's MIC Coagulase Negative Staphylococcus (GC 4549) is strictly smaller than 1 µg/mL; on equality or larger values it gives NO.

// known answers, use as guide
# Compound, Category Label
rows = [
    ("CCCCOC(=O)CCC1OCC2OC(OC3C(CO)OC(Oc4ccc(CC5NC(=O)C(C(C)c6ccccc6)NC(=O)CNC(=O)C(CO)NC(=O)C(C(O)C6CNC(=N)N6C6OC(CO)C(O)C(O)C6O)NC(=O)C(C(O)C6CNC(=N)N6)NC5=O)cc4)C(O)C3O)C(O)C(O)C2O1 (centres unmarked) [Example 114]", "NO"),
    ("CC(=O)n1cc(C2OCC3OC(OC4C(CO)OC(Oc5ccc(CC6NC(=O)C(C(C)c7ccccc7)NC(=O)CNC(=O)C(CO)NC(=O)C(C(O)C7CNC(=N)N7C7OC(CO)C(O)C(O)C7O)NC(=O)C(C(O)C7CNC(=N)N7)NC6=O)cc5)C(O)C4O)C(O)C(O)C3O2)c2ccccc21 (centres unmarked) [Example 161]", "NO"),
    ("CC(c1ccccc1)C1NC(=O)CNC(=O)C(CO)NC(=O)C(C(O)C2CNC(=N)N2C2OC(CO)C(O)C(O)C2O)NC(=O)C(C(O)C2CNC(=N)N2)NC(=O)C(Cc2ccc(OC3OC(CO)C(OC4OC(CO)C(O)C5OC(c6ccc(-c7ccsc7)cc6)OC45)C(O)C3O)cc2)NC1=O (centres unmarked) [Example 164a]", "NO"),
    ("CSc1ccc(C2OCC3OC(OC4C(CO)OC(Oc5ccc(CC6NC(=O)C(C(C)c7ccccc7)NC(=O)CNC(=O)C(CO)NC(=O)C(C(O)C7CNC(=N)N7C7OC(CO)C(O)C(O)C7O)NC(=O)C(C(O)C7CNC(=N)N7)NC6=O)cc5)C(O)C4O)C(O)C(O)C3O2)cc1 (centres unmarked) [Example 144]", "YES"),
    ("CC(c1ccccc1)C1NC(=O)CNC(=O)C(CO)NC(=O)C(C(O)C2CNC(=N)N2C2OC(CO)C(O)C(O)C2O)NC(=O)C(C(O)C2CNC(=N)N2)NC(=O)C(Cc2ccc(OC3OC(CO)C(OC4OC5COC(c6cccc(O)c6)OC5C(O)C4O)C(O)C3O)cc2)NC1=O (centres unmarked) [Example 136]", "NO"),
    ("CC(c1ccccc1)C1NC(=O)CNC(=O)C(CO)NC(=O)C(C(O)C2CNC(=N)N2C2OC(CO)C(O)C(O)C2O)NC(=O)C(C(O)C2CNC(=N)N2)NC(=O)C(Cc2ccc(OC3OC(CO)C(OC4OC5COC(Cc6ccc(Cl)cc6)OC5C(O)C4O)C(O)C3O)cc2)NC1=O (centres unmarked) [Example 120]", "YES"),
]

(Q) Find out if reported MIC Coagulase Negative Staphylococcus (GC 4549) for COc1cc(C2OCC3OC(OC4C(CO)OC(Oc5ccc(CC6NC(=O)C(C(C)c7ccccc7)NC(=O)CNC(=O)C(CO)NC(=O)C(C(O)C7CNC(=N)N7C7OC(CO)C(O)C(O)C7O)NC(=O)C(C(O)C7CNC(=N)N7)NC6=O)cc5)C(O)C4O)C(O)C(O)C3O2)ccc1[N+](=O)[O-] (centres unmarked) [Example 153] is less than 1 µg/mL
(A) YES

(Q) Is the reported MIC Coagulase Negative Staphylococcus (GC 4549) for CC(c1ccccc1)C1NC(=O)CNC(=O)C(CO)NC(=O)C(C(O)C2CNC(=N)N2C2OC(CO)C(O)C(O)C2O)NC(=O)C(C(O)C2CNC(=N)N2)NC(=O)C(Cc2ccc(OC3OC(CO)C(OC4OC(CO)C(O)C5OC(c6ccccc6)OC45)C(O)C3O)cc2)NC1=O (single isomer, unassigned) [Example 104b] strictly below 1 µg/mL?
(A) NO

* * *

Test system: Staphylococcus sp.
Protocol: In vitro antibacterial evaluation: minimum inhibitory concentration (MIC), broth dilution method
Type: cell-based
Condition Label: Staphylococcus aureus (GC 4542); 18 hours at 35° C.
Metric: MIC Staphylococcus aureus (GC 4542) (µg/mL)
Dear colleague, please return just the value in µg/mL, with no unit written.

# Compound, Metric, Observed Value
rows = [
    ("CCCCCNC(=O)OCC1OC(OC2C(CO)OC(Oc3ccc(CC4NC(=O)C(C(C)c5ccccc5)NC(=O)CNC(=O)C(CO)NC(=O)C(C(O)C5CNC(=N)N5C5OC(CO)C(O)C(O)C5O)NC(=O)C(C(O)C5CNC(=N)N5)NC4=O)cc3)C(O)C2O)C(O)C(O)C1O (centres unmarked) [Example 251b]", "MIC Staphylococcus aureus (GC 4542)", 8),
]

(Q) Give MIC Staphylococcus aureus (GC 4542) for CC(c1ccccc1)C1NC(=O)CNC(=O)C(CO)NC(=O)C(C(O)C2CNC(=N)N2C2OC(CO)C(O)C(O)C2O)NC(=O)C(C(O)C2CNC(=N)N2)NC(=O)C(Cc2ccc(OC3OC(CO)C(OC4OC(CO)C(OCC=Cc5ccc(N(C)C)cc5)C(O)C4O)C(O)C3O)cc2)NC1=O (centres unmarked) [Example 243a]
(A) 32
